target.desc: T1, human CD40 with C-terminal Flag tag on HEK293 cells (human, UniProt P25942 21-277)
T1 construct: whole, on cells; also called HEK293 cells highly expressing CD40; cell strain highly expressing human CD40
measurement.protocol: FACS, HEK293 cells transiently expressing human CD40
measured.quantity: EC50 (nM)
Note: unit nM is implicit; provide only the numeric part.

binder	EC50 [nM]
A297V1-Fc (Fc fusion) QVQLVESGGGVVQPGGSLRLSCAASGFTFSRYGMKWVRQAPGKGLEWVSTINSHGDTTYYADSVKGRFTISRDNAKNSLYLQMNSLRAEDTALYYCARIDYSDYSSRGQGTMVTVSSEPKSADKTHTCPPCPAPELLGGPSVFLFPPKPKDTLMISRTPEVTCVVVDVEHEDPEVKFNWYVDGVEVHNAKTKPREEQYNSTYRVVSVLTVLHQDWLNGKEYKCKVSSKAFPAPIEKTISKAKGQPREPQVYTLPPSRDELTKNQVSLTCLVKGFYPSDIAVEWESNGQPENNYKTTPPVLDSDGSFFLYSKLTVDKSRWQQGNVFSCSVMHEALHNHYTQKSLSLSPGK	1.11

Now look at this one.
Bench note: what EC50 did A297V2-Fc (Fc fusion) QVQLVESGGGVVQPGGSLRLSCAASGFTFSRYGMKWVRQAPGKGLEWVSTINSHGDTTYYADSVKGRFTISRDNAKNSLYLQMNSLRAEDTALYYCLRIDYSDYSSRGQGTMVTVSSEPKSADKTHTCPPCPAPELLGGPSVFLFPPKPKDTLMISRTPEVTCVVVDVEHEDPEVKFNWYVDGVEVHNAKTKPREEQYNSTYRVVSVLTVLHQDWLNGKEYKCKVSSKAFPAPIEKTISKAKGQPREPQVYTLPPSRDELTKNQVSLTCLVKGFYPSDIAVEWESNGQPENNYKTTPPVLDSDGSFFLYSKLTVDKSRWQQGNVFSCSVMHEALHNHYTQKSLSLSPGK show?
1.07
